experimental target: Threonine--tRNA ligase (Yersinia pestis, UniProt Q8ZDW5)
Sequence (Q8ZDW5 whole entry): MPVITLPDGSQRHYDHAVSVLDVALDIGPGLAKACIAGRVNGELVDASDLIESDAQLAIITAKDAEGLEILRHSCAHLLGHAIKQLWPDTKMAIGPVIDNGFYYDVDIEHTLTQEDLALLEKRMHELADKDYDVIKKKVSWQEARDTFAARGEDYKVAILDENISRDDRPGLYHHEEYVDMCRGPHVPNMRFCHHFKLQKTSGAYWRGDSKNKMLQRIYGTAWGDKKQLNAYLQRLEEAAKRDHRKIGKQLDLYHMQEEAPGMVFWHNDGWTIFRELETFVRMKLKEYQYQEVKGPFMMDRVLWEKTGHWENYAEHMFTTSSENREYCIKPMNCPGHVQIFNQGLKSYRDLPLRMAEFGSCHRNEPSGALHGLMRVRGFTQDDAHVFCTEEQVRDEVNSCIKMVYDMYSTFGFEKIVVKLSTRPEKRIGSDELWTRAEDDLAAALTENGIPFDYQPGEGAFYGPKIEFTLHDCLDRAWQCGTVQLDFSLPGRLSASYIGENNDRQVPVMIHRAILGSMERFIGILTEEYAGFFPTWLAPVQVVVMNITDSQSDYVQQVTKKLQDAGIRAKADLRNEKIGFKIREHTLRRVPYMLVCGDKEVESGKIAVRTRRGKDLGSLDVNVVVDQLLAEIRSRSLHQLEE
endpoint label: Ki (nM)
I only need the number, in nM, no unit after it.

Past entries and their recorded results:
[[record]]
structure_string = "C[C@@H](O)[C@H](N)C(=O)NS(=O)(=O)c1cccc(-c2ccc3c(N)ncnc3c2)c1"
measurement_units = "nM"
recorded_result = 2.2

[[record]]
structure_string = "C[C@@H](O)[C@H](N)C(=O)NS(=O)(=O)/C=C/c1cccc(-c2cc(N)ncn2)c1"
measurement_units = "nM"
recorded_result = 1.8

[[record]]
structure_string = "C[C@@H](O)[C@H](N)C(=O)NS(=O)(=O)c1cccc(-c2ccc3c(N)nc(N)nc3c2)c1"
measurement_units = "nM"
recorded_result = 8.2


# ---- query compound ----
Identify measured Ki associated with `C[C@@H](O)[C@H](N)C(=O)NS(=O)(=O)c1ccc(Oc2ccccc2)cc1`
33100
